Target: Gal3S(b1-4)GlcNAc
Test: glycan array binding signal (z-score within array); higher = stronger binding
Settings: glycan notation: IUPAC condensed, linker removed
The sample as a whole holds a higher share of the strongest signals than the screen did.
In this section, each of the binders is paired with its reported glycan array binding signal (z-score).
API note: the answer field is a bare number with no unit suffix.

// below: answered binders
Eosinophil cationic protein (ECP) (Homo sapiens), P12724 (protein) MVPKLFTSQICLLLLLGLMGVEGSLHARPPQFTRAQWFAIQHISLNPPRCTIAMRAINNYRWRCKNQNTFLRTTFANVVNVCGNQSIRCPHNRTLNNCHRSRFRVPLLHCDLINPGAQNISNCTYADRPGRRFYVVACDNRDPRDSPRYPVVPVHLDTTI    0.818
EPL1 (Trichoderma atroviride), A0PCX2 (protein) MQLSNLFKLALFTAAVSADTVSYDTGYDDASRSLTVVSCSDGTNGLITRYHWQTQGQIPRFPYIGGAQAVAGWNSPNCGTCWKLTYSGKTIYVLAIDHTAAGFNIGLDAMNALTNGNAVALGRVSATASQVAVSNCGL    0.311
BDCA2 ex-domain (Homo sapiens) (protein) MASHHHHHHIEGRGLNDIFEAQKIEWHESLVPRGSCPTPWTSFQSSCYFISTGMQSWTKSQKNCSVMGADLVVINTREEQDFIIQNLKRNSSYFLGLSDPGGRRHWQWVDQTPYNENVTFWHSGEPNNLDERCAIINFRSSEEWGWNDIHCHVPQKSICKMKKIY    -0.181
RegIIIgamma (Mus musculus), O09049 (protein) MLPRITITIMSWMLLSCLMLLSQVQGEVAKKDAPSSRSSCPKGSRAYGSYCYALFSVSKNWYDADMACQKRPSGHLVSVLSGAEASFLSSMIKSSGNSGQYVWIGLHDPTLGYEPNRGGWEWSNADVMNYINWETNPSSSSGNHCGTLSRASGFLKWRENYCNLELPYVCKFKA    -0.128

We next turn to a different binder, shown below.
Q. For the binder FBG4 (Homo sapiens), Q96EF6 (protein) MGARLSRRRLPADPSLALDALPPELLVQVLSHVPPRSLVTRCRPVCRAWRDIVDGPTVWLLQLARDRSAEGRALYAVAQRCLPSNEDKEEFPLCALARYCLRAPFGRNLIFNSCGEQGFRGWEVEHGGNGWAIEKNLTPVPGAPSQTCFVTSFEWCSKRQLVDLVMEGVWQELLDSAQIEICVADWWGARENCGCVYQLRVRLLDVYEKEVVKFSASPDPVLQWTERGCRQVSHVFTNFGKGIRYVSFEQYGRDVSSWVGHYGALVTHSSVRVRIRLS , give its reported glycan array binding signal (z-score).
A. 0.201
